// data source = ChEMBL document CHEMBL1687889

System: HCT-8
RUN_DESCRIPTION: Antiproliferative activity against human HCT8 cells after 3 days by sulforhodamine B assay
Format: functional
STUDY_CONDITIONS: HCT-8, 72 h
Mark Yes for GI50 under 4 µM, No if at or over.

Please review the following examples before continuing.
CCC1=C(O)c2c(oc(-c3ccc4sccc4c3)cc2=O)C(CC)(CC)C1=O = No
CCC1=C(O)c2c(oc(-c3sc4ccccc4c3C)cc2=O)C(CC)(CC)C1=O = No
CCC1=C(O)c2c(oc(-c3ccc4c5c(cccc35)CC4)cc2=O)C(CC)(CC)C1=O = Yes

Take the molecule `CCC1=C(O)c2c(oc(-c3ccc4ccccc4c3)cc2=O)C(CC)(CC)C1=O` and say whether its GI50 is less than 4 µM.
Yes

Repeat with `CCC1=C(OC)C(CC)(CC)c2oc(-c3cccc4ccccc34)cc(=O)c2C1=O`
No
